Measured GI50 of individual entries
system: HOP-18; experiment: NCI tumour cell line growth inhibition, 48 h
The source made the active and inactive calls. No stated cut-off is given here; in the data, active = GI50 up to about 1.1 µM and inactive = higher.

Solved entries (count: 5):
c1ccc2c3c(ccc2c1)-c1[nH]ncc1CCO3: 61.4 µM (inactive)
COC(=O)/C(=N\NC(N)=O)C(C(=O)C(=O)Nc1ccccc1C(=O)OC)c1nc2ccc(C(=O)c3ccccc3)cc2nc1O (stereo not given): > 100 µM (inactive)
O=C(N/N=C/c1cccc(O)c1O)N/N=C/c1cccc(O)c1O: 19.2 µM (inactive)
CCN(CC)CCn1c2c3ccccc3ccc2c2oc(=O)c3ccccc3c21: > 100 µM (inactive)
CC(=O)Oc1cc(C)c2c(c1OC(C)=O)CC1(O2)[C@@H](C)CCC2[C@@]3(C)CC[C@H](OC(C)=O)C(C)(C)C3CC[C@]21C (stereo not given in full): 2.64 µM (inactive)

// fetch GI50 given entry CC(C)C(=O)/C=C/c1ccc(Cl)cc1 4.9 µM (inactive)

====

test system: Malme-3M; assay: NCI tumour cell line growth inhibition, 48 h
Calls of active or inactive are those of the source. No stated cut-off is given here; in the data, active = GI50 up to about 1.1 µM and inactive = higher.
Valid outcomes are listed here; reply with one: TRUE (active), FALSE (inactive)

For this molecule, state the assay outcome: CN1CCC(C(O)(c2ccccc2)c2ccc(Br)cc2)CC1 (stereo unspecified) FALSE

Lab log entry: Cc1ccc([S+]([O-])CC(CF)OCn2cc(C)c(=O)[nH]c2=O)cc1 (stereo unspecified) — outcome as called in the assay? FALSE

Check the results log: what was the call for Brc1ccc2c(-c3nc(-c4c[nH]c5ccccc45)cs3)c[nH]c2c1 ? FALSE

====

tested on: HOP-92; assay: NCI tumour cell line growth inhibition, 48 h
Activity calls are given as the source filed them. No stated cut-off is given here; in the data, active = GI50 up to about 1.1 µM and inactive = higher.
Observation type: GI50

# annotated cases, reported GI50 shown
CCOC(=O)CSc1nnc2cc(CN3CCCC3)c(-c3ccc(Cl)cc3)nn12: > 100 µM (inactive)
COc1ccc(/C=C/C(=O)c2ccc(OC(=O)/C=C/c3ccccc3)cc2)cc1: 44.5 µM (inactive)
Cc1ccc2nc3[nH]nc(N)c3nc2c1: 87.1 µM (inactive)
C=CC[C@]12C=C(OC)[C@@H](O)[C@](OC)(C(c3cc(OC)c4c(c3)OCO4)[C@H]1C)[C@H]2OC(C)=O (stereo not given in full): 83.6 µM (inactive)

API: the following record is the query input.
Identify measured GI50 associated with COc1cc(/C=C/C(=O)c2ccc(O)c(OC)c2)ccc1O 27.2 µM (inactive)

====

# GI50 per entry
system: RXF 631; test: NCI tumour cell line growth inhibition, 48 h
Active and inactive are the calls of the source. Cut-off read from the data, not from the text of the source: active = GI50 up to about 1.1 µM and inactive = higher.

Use these answered entries as a reference point.
CC1=C(C)C(=O)C2=C(OCCCO2)C1=O: 17.7 µM (inactive)
COc1ccc(/C(=N\NC(=O)C(=O)NN)C(c2ccc(OC)cc2)C2(O)C(=O)Nc3ccccc32)cc1 (stereo not given): > 100 µM (inactive)
CN(C)C(=S)/N=c1\ss/c(=N/c2ccccc2)n1C: 44.6 µM (inactive)

Check the records and state GI50 for CCCC1C[C@H]2CCCCN2[C@H]2CCCN12 (stereo not given in full) > 100 µM (inactive)

Input CCN(c1ccccc1)[C@H]1C(=O)N(c2ccc([N+](=O)[O-])cc2)[C@H]1c1ccc(OC)cc1 , output reported GI50. 35.8 µM (inactive)

Hello, please tell me recorded GI50 for this one: CCOC(=O)C(=O)Nc1cccc(Cl)c1C > 100 µM (inactive)

Fill in reported GI50 for this entry: CCN(CC)CCn1c2c3ccccc3ccc2c2oc(=O)c3ccccc3c21 > 100 µM (inactive)

Indicate its recorded GI50; the compound in question is CCC(C)C(N)C(=O)NC(CC(N)=O)C(=O)NC(CC(C)C)C(=O)NC(CCCCN)C(=O)NC(C)C(=O)NC(CC(C)C)C(=O)NC(C)C(=O)NC(C)C(=O)NC(CC(C)C)C(=O)NC(C)C(=O)NC(CCCCN)C(=O)NC(CCCCN)C(=O)NC(C(=O)NC(CC(C)C)C(N)=O)C(C)CC (stereo not given) 7.82 µM (inactive)

Entry Nc1cccc(S(=O)(=O)NCC(=O)O)c1 needs its GI50 filled in; supply it. > 100 µM (inactive)

// fetch GI50 given entry O=c1cc(O)cc2n1CCC2 > 100 µM (inactive)

Identify measured GI50 corresponding to CCOC(=O)C(C(=O)c1ccccc1)=C1NCCN1 > 100 µM (inactive)

Find the measured GI50 of CC(=O)NNc1nc(C)c(C(=O)NNC(=O)C(=O)Nc2ccccc2C#N)s1 and report it. > 100 µM (inactive)

Look up GI50 of CN(C)/C(N)=N\C#N and report it. > 100 µM (inactive)

Find the measured GI50 of O=c1c(O)cccn1C1OC(CO)C(O)C1O (stereo not given) and report it. > 100 µM (inactive)

Give GI50 for O=C(O)CCC1CCc2cccc(O)c2C1=O (stereo not given) > 100 µM (inactive)

====

Reported values of GI50 for individual entries
tested on: SF-295; experiment: NCI tumour cell line growth inhibition, 48 h
Active and inactive are the calls of the source. Cut-off read from the data, not from the text of the source: active = GI50 up to about 1.1 µM and inactive = higher. Where a SMILES comes first, the peptide text is derived from it. [ ]: non-standard residue; d: D form. The star is where a group is joined. Hyp = O=C(O)[CH]1C[CH](O)CN1; Cbz = O=C(OCc1ccccc1)*

Before answering, review these 4 worked examples.
CC[C@H](C)c1occ2c(O)c(C(=O)O)c(=O)cc-2c1C: 31.3 µM (inactive)
Cc1cccc2c1Oc1cc(Cl)ccc1C2NC(=O)CCN1CCN(CCO)CC1 (stereo not given): 18.3 µM (inactive)
NC(=O)CNC(=O)C1CC(O)CN1C(=O)C1CCCN1C(=O)OCc1ccccc1 (stereo not drawn) (Cbz-Pro-[Hyp]-Gly-NH2; configuration not given here): > 100 µM (inactive)
O=c1[nH]nc(-c2ccccc2)n1-n1cccc1: > 100 µM (inactive)

Next up:
Give the measured GI50 for CCOP1(=O)C=CC(Cl)=C(C)C1 (stereo not given) 35.2 µM (inactive)

====

Read-out record for HCT-15: GI50

These solved cases illustrate the format of a correct answer.
CCc1c(O)c2c(c(O)c1C(C)=O)C(=O)c1c(cc(O)c(C(=O)O)c1C(=O)O)C2=O: > 100 µM
Nc1c(C(=O)O)c2ccc([N+](=O)[O-])cc2c(=O)n1-c1nc2ccccc2s1: > 100 µM
O=c1c(O)cccn1C1OC(CO)C(O)C1O (stereo not given): > 100 µM
CS(=O)(=O)c1ccc(NNc2cc(=O)[nH]c(=O)[nH]2)cc1: > 100 µM
O=C(c1ccccc1)c1nc2ccc(Cl)cc2c2c1CCCO2: > 100 µM
CN(C)N1C(=C(C#N)C#N)C(c2ccccc2)CC1C#N (stereo not given): > 100 µM
CSc1nc2c(c(N3CCOCC3)n1)C(O)n1c(nc3ccccc31)S2 (stereo not given): 63 µM
CC(=O)C1Cn2c(=O)c3cc4ccccc4cc3c(=O)n2C=C1C (stereo not given): 76.7 µM
N#C/C(=C(/S)Nc1ccccc1)c1nc2ccccc2[nH]1: > 10 µM

Let us move to another entry and its GI50.
Let me know recorded GI50 for CO[C@@H]1C[C@H]2[C@@H]3CC[C@H]([C@@H](C)CO)[C@@]3(C)CC[C@@H]2[C@@]2(C)CC[C@H]3C[C@]312 , thanks. 33.3 µM

====

Quick list: GI50 per entry.
tested on: K562; test: NCI tumour cell line growth inhibition, 48 h
The source made the active and inactive calls. Cut-off read from the data, not from the text of the source: active = GI50 up to about 1.1 µM and inactive = higher.

CN1CCN(c2ccncc2S(=O)(=O)N2CCN(C)CC2)CC1: > 100 µM (inactive)

Provide GI50, recorded with K562, of CC(Cc1ccccc1)Nc1ncnc2c1ncn2C1OC(CO)CC1O (stereo not given) > 100 µM (inactive)

# lookup: K562 GI50, key = O=C(CP(c1ccccc1)c1ccccc1)c1cccc(C(=O)CP(c2ccccc2)c2ccccc2)c1 8.02 µM (inactive)

Report value: GI50, system: K562, compound: CN(C)c1ncnc2c1ncn2C1C=CC(COS(N)(=O)=O)C1 (stereo not given) 82.4 µM (inactive)

Provide K562 GI50 reading for Cc1ccc([N+](=O)[O-])c2c(NCCNC(=O)c3cc(C(=O)NCCNc4ccnc5c(C)ccc([N+](=O)[O-])c45)n(C)n3)ccnc12 . 40.5 µM (inactive)

Would you please give the reported GI50 of O=C1NC(=S)NC(=O)C1C(c1ccc([N+](=O)[O-])cc1)C1C(=O)NC(=S)NC1=O.c1ccncc1 with K562? > 100 µM (inactive)

Please report the measured GI50 for COc1ccc(Cc2nn(C3OC(COC(C)=O)C(OC(C)=O)C(OC(C)=O)C3OC(C)=O)c(=S)n(-c3ccc(OC)cc3)c2=O)cc1 (stereo not given) tested on K562. > 100 µM (inactive)

Consider the compound C[C@]12C=CC(=O)C=C1CC[C@H]1[C@@H]3C[C@@H](O)[C@](O)(C(=O)CO)[C@@]3(C)C[C@H](O)[C@@]12F [TRIAMCINOLONE] tested on K562; state its GI50. > 100 µM (inactive)
